Target: T1, vascular endothelial growth factor (VEGF) (UniProt P15692-4 27-191, limits assumed, biotinylated)
T1 construct: Soluble biotinylated VEGF used to label cells that display the peptides; also called biotinylated VEGF
T1 sequence (P15692 other isoform, or with tags, fused parts or gaps limits assumed): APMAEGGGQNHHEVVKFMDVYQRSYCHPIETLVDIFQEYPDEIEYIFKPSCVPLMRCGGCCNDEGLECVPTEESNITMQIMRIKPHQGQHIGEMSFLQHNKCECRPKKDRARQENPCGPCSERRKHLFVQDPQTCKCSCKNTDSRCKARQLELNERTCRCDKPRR
Assay: flow cytometry, peptide displayed on bacterial cell surface, dissociation of biotinylated VEGF at room temperature
Bridge positions count the residues as written; N and C are the ends. Ends that are not written are not given here.
Quantity kind: koff (s⁻¹)
Just the number in s⁻¹, nothing appended.

Below: 3 binders and their reported koff.
Binder	Endpoint unit	koff
SSKCGRWGETPCLAEGGGSGGGNFGYGKWEWDYGKWLEKVG (also called bidentate peptide L3.F5A.01; not shown: CPXopt bacterial display scaffold (carrier)) [L3.F5A.01]	s⁻¹	2e-05
AKRSSYSMWGAMPGGGSGGGNFGYGKWEWDYGKWLEKV (Displayed on the E. coli surface as a fusion to CPXopt; the letters do not carry the scaffold., Peptide 2 is printed without the final G of L2.F4.04; not shown: CPXopt bacterial display scaffold that carried the peptide on the cell surface) [L3.F5A.03]	s⁻¹	4.28e-05
NFGYGKWEWDYGKWLEKVG (not shown: CPXopt bacterial display scaffold (carrier)) [L2.F4.04]	s⁻¹	0.0013

Could you share which koff value was measured for SKLKTLLWQQGGGSGGGNFGYGKWEWDYGKWLEKV (Displayed on the E. coli surface as a fusion to CPXopt; the letters do not carry the scaffold., Peptide 2 is printed without the final G of L2.F4.04; not shown: CPXopt bacterial display scaffold that carried the peptide on the cell surface) [L3.F6.02] ?
0.000291

Could you share which koff value was measured for CPVQTMWDWECMRAFIEG (disulfide 1-11 (inferred), not shown: CPXopt bacterial display scaffold (carrier)) [L2.F3B.08] ?
0.0072

Could you share which koff value was measured for SYVLKEWSVPSWGKPGGGSGGGNFGYGKWEWDYGKWLEKV (Displayed on the E. coli surface as a fusion to CPXopt; the letters do not carry the scaffold., Peptide 2 is printed without the final G of L2.F4.04; not shown: CPXopt bacterial display scaffold that carried the peptide on the cell surface) [L3.F6.01] ?
0.00011
